Data credit: ChEMBL document CHEMBL5058577

# Test system: U2OS
# experiment: Multiplex assay against U2OS
# Assay type: toxicity, cell-based
# stated conditions: human, 24 h, 10 µM, compound concentration 10 uM, replicate 1

compound: O=C(O)CCC/C=C\CC1C(O)CC(O)C1/C=C/C(O)COc1cccc(Cl)c1 (centres undefined)
target or system: U2OS
Population Mitotic Cells (%): 10

compound: CN1CCN(c2ccc(Nc3c4ccccc4nc4ccccc34)cc2)CC1.Cl.Cl.O
target or system: U2OS
Population Mitotic Cells (%): 0

compound: OCCCNc1cc(-c2ccnc(Nc3cccc(Cl)c3)n2)ccn1
target or system: U2OS
Population Mitotic Cells (%): 12

compound: COc1cc2nc(N3CCN(C(=O)COc4c(OC)cccc4C(C)C)CC3)nc(N)c2cc1OC.Cl.Cl
target or system: U2OS
Population Mitotic Cells (%): 24

compound: O=c1nc2[nH]c3ccccc3nc-2c(=O)[nH]1
target or system: U2OS
Population Mitotic Cells (%): 21

compound: Cc1sc2c(c1C)C(c1ccc(Cl)cc1)=N[C@H](CC(=O)OC(C)(C)C)c1nnc(C)n1-2
target or system: U2OS
Population Mitotic Cells (%): 16

compound: Cc1c(Cc2ccc3ccccc3n2)c2cc(F)ccc2n1CC(=O)O
target or system: U2OS
Population Mitotic Cells (%): 5

compound: CCCCC[C@H](O)/C=C/[C@H]1[C@H](O)CC(=O)[C@@H]1CCCCCCC(=O)O
target or system: U2OS
Population Mitotic Cells (%): 5

compound: C[C@@H]1CC(=O)Nc2cccc(-c3ccc4c(c3)c(-c3cnn(C)c3)nn4C)c2N1
target or system: U2OS
Population Mitotic Cells (%): 10

---

# Tested on: U2OS
# experiment: Multiplex assay against U2OS
# Format: toxicity, cell-based
# stated conditions: human, 12 h, 1 µM, compound concentration 1 uM, replicate 2
param class (str): category from Population Mitochondria Different-Phenotype (%); see ranges bin A: < 3%; bin B: ≥ 3% and < 7%; bin C: ≥ 7%

compound: CN(C)C/C=C/C(=O)Nc1ccc(C(=O)N2CCCC(Nc3ncc(Cl)c(-c4c[nH]c5ccccc45)n3)C2)cc1 (stereo not given)
class: bin B

compound: COc1ccc2c(c1OCc1ccccc1)C[C@@H](C(=O)O)N(C(=O)C(c1ccccc1)c1ccccc1)C2 [OLODANRIGAN]
class: bin B

compound: CCn1c(-c2nc3cc(C(=O)N4CCCC(N)C4)ccc3n2C)cc2ccccc21.Cl (stereo not given)
class: bin C

compound: OCCCNc1cc(-c2ccnc(Nc3cccc(Cl)c3)n2)ccn1
class: bin C

compound: CC(C)C[C@H](CO)Nc1nc(S[C@@H](C)c2ccccc2)nc2nc(N)sc12 [AZD-8797]
class: bin B

compound: Cc1cc(=O)n(C)c2cc(N3C(=O)CC[C@H](NS(=O)(=O)CC(C)C)[C@H]3c3ccc(Cl)cc3)ccc12
class: bin A

compound: CCCCCCNC(=O)Nc1ccc(S(=O)(=O)Nc2ccc(CCNC[C@H](O)COc3ccc(O)cc3)cc2)cc1 [L-755507]
class: bin A

compound: CSc1nc(NC2CCCC2)c([N+](=O)[O-])c(NC2CCCC2)n1 [GS-39783]
class: bin A

compound: O=c1nc2[nH]c3ccccc3nc-2c(=O)[nH]1 [ALLOXAZINE]
class: bin B

compound: CCC(=O)OCC(=O)[C@@]1(OC(=O)CC)[C@@H](C)C[C@H]2[C@@H]3CCC4=CC(=O)C=C[C@]4(C)[C@@]3(Cl)[C@@H](O)C[C@@]21C [BECLOMETHASONE DIPROPIONATE]
class: bin C

compound: N[C@](CC1c2ccccc2Oc2ccccc21)(C(=O)O)[C@H]1C[C@@H]1C(=O)O
class: bin C

compound: CC(C)(O)C(=O)N1CCN(c2ccc(C(F)(F)F)c(C3=C(c4c[nH]c5ccccc45)C(=O)NC3=O)c2)CC1
class: bin B

compound: Cc1ccc(OCC(O)C(C)NC(C)C)c2c1CCC2.Cl (stereo not given)
class: bin A

compound: COc1ccc2[nH]c(I)c(CCNC(C)=O)c2c1 [IODOMELATONIN]
class: bin A

compound: C[C@H](NC(=O)CNC(=O)c1cccc(Cl)c1)c1ccccc1
class: bin A

compound: C=CCN1C[C@H](C(=O)N(CCCN(C)C)C(=O)NCC)C[C@@H]2c3cccc4[nH]cc(c34)C[C@H]21 [CABERGOLINE]
class: bin B

compound: CN1CCC(C(=O)c2cccc(NC(=O)c3c(F)cc(F)cc3F)n2)CC1
class: bin C

compound: S=C(NCCCc1c[nH]cn1)NCCCN(Cc1ccc(Cl)c(Cl)c1)c1ccc(Br)cn1
class: bin C

compound: Nc1nc(CC(=O)Nc2ccc(CCNC[C@H](O)c3ccccc3)cc2)cs1 [MIRABEGRON]
class: bin A

compound: O=c1ccc2ccc(OCCCCN3CCN(c4cccc5sccc45)CC3)cc2[nH]1 [BREXPIPRAZOLE]
class: bin C

compound: Nc1nc(-c2ccco2)c2cnn(Cc3ccccc3F)c2n1
class: bin B

compound: Cc1cc(O)c(-c2ccc([C@@H](C)CN(C)C)cc2)c2c1[nH]c(=O)c1sccc12
class: bin C

compound: CN(C)C(=O)Cn1cc(-c2ccc(-c3nnc4ccccn34)cc2)cn1
class: bin B

compound: COc1cc(Nc2ncc3c(n2)-c2ccc(Cl)cc2C(c2c(F)cccc2OC)=NC3)ccc1C(=O)O [ALISERTIB]
class: bin B
